Target: T1, human sortilin stably expressed on HEK 293 cells (HEK-SORT1 cells) (human, UniProt Q99523 78-831)
T1 sequence (looked up): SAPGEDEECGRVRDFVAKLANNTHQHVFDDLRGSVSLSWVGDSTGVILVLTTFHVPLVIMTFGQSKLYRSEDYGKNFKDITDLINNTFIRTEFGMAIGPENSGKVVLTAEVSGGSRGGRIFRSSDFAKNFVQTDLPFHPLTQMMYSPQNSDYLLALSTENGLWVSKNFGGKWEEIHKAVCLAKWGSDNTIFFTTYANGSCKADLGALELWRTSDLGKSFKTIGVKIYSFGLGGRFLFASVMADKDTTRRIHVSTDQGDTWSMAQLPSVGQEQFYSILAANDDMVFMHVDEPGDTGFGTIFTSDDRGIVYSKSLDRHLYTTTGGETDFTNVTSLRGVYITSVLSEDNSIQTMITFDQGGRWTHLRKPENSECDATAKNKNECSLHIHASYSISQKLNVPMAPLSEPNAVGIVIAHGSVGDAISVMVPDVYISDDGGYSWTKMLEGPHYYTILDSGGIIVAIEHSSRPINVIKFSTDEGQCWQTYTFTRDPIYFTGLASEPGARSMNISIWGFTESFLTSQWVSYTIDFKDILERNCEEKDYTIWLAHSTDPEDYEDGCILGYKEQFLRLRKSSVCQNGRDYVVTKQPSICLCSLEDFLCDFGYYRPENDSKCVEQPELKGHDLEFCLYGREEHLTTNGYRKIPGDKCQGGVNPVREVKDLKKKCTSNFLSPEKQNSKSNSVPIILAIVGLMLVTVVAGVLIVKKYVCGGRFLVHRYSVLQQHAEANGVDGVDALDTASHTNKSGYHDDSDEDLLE
Assay: cell-based or functional assay
Ends that are not written are not given here. * marks the point of attachment. Azidoacetyl = [N-]=[N+]=NCC(=O)*
Attribute: Mean Fluorescence Intensity (MFI), uptake 37C-4C, at 12 nM
Hi! Could you send only the number? It should be in MFI, unit omitted.

query: What value of Mean Fluorescence Intensity (MFI), uptake 37C-4C, at 12 nM has been recorded for this entry: XLYENKPRRPYIL (not fully specified; position 1 printed dK (X = 2-azido-acetyl lysine); side chain joined via triazolo-BCN carbamate / 6-aminohexanol linker to the 5' end of oligonucleotide … (SEQ ID NO 2, uniform MOE, phosphodiester, 3'-Cy3))
result: 38

query: What value of Mean Fluorescence Intensity (MFI), uptake 37C-4C, at 12 nM has been recorded for this entry: K(Azidoacetyl)LYENKPKKPYIL (not fully specified; printed as 2-azido-acetyl-KLYENKPKKPYIL; also: azide joined via triazolo-BCN carbamate/6-aminohexanol linker to 5' end of 20-mer MOE oligonucleotide CCAGGCTGGTTATGACTCAG (uniform MOE, phosphodiester, 3'-Cy3)) [Compound No. 1270697, … peptide conjugated to 20-mer MOE oligonucleotide with 3'-Cy3]
result: 39

query: What value of Mean Fluorescence Intensity (MFI), uptake 37C-4C, at 12 nM has been recorded for this entry: KLYENKPRKPYIL (not fully specified (residue 1)) [Compound No. 1270696, XLYENKPRKPYIL peptide conjugated to 20-mer MOE oligonucleotide with 3'-Cy3]
result: 43

query: What value of Mean Fluorescence Intensity (MFI), uptake 37C-4C, at 12 nM has been recorded for this entry: XLYENKPKRPYIL (not fully specified; X at position 1 is 2-azido-acetyl lysine, joined via triazolo-BCN carbamate / 6-aminohexanol linker to 5' end of … (SEQ ID NO 2, uniform MOE, phosphodiester, 3'-Cy3)) [Compound No. 1270698, XLYENKPKRPYIL peptide conjugated to 20-mer MOE oligonucleotide with 3'-Cy3]
result: 35
